Here, each record is paired with measured Ki data.
target: PAF receptor (Oryctolagus cuniculus); construct: Platelet membranes were prepared by centrifugation and washing; tissue Pel-Freez (Rogers, AR), supplier of the citrated whole rabbit blood; assay: PAF Receptor Binding Assay ([3H]C18-PAF, rabbit platelet membranes)
Sequence (G1TEI7 1-342): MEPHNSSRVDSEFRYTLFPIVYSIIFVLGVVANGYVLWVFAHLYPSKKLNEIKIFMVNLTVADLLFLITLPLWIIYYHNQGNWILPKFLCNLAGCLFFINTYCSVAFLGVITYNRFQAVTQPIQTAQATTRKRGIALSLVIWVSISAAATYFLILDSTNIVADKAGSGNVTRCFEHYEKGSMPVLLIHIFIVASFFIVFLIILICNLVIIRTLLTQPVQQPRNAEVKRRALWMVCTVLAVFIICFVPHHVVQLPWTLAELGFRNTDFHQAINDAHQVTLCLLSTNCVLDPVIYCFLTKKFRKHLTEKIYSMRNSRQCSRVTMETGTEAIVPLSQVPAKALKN

# MOLECULE, Ki, nM
measured = [
    ("CCCCCCCCCCCCCCCCCCNC(=O)OC[C@H]1C[C@H](COC(=O)N(Cc2cccc[n+]2CC)C(C)=O)N1C(=O)c1ccccc1 (relative stereo)", 104),
    ("CCCCCCCCCCCCCCCCCCNC(=O)OC[C@H]1C[C@H](COC(=O)N(Cc2cccc[n+]2CC)C(=O)c2ccccc2OC)S1 (relative stereo)", 34),
]

###

test system: PAF-induced platelet aggregation, rabbit platelets; test: Inhibitory action on PAF-induced platelet aggregation (platelet-rich plasma); assay type: cell-based, New Zealand male rabbits; settings: Oryctolagus cuniculus, PAF 5×10^-9 M, 37° C., turbidimetry, rabbit PRP
pIC50: −log10 of the molar value.

# COMPOUND, pIC50
measured = [
    ("CCCCCCCCCCCCCCCCOC[C@H]1C[C@H](COC(=O)N(Cc2cccc[n+]2CC)C(=O)c2ccccc2OC)S1 (relative stereo)", 7.72),
]
